Biological target: recombinant human B1 receptors (Homo sapiens)
Construct: host or cells: CHO (CHO-B1)
Experiment: Functional assay: cytosolic calcium ion concentration measured with plate reader fluorimeter in CHO-B1 cells, agonist LysDABK
Assay type: cell-based
Settings: CHO-B1 cells, LysDABK at EC80, [Ca2+]i; read-out: B1 func.
pIC50: −log10 of the molar value. Structures can show the parent of a compound that is named as a salt.
ASSAY_READOUT: pIC50

Identify the reported pIC50 for the following entry. O=C(NCCN1CCN(c2ccccn2)CC1)c1ccc(S(=O)(=O)Nc2ccccc2Oc2ccc(Cl)cc2Cl)cc1 [Example 20, trifluoroacetate]
7.00 to 7.70

Output pIC50 of O=C(N[C@H]1CC[C@H](CCN2CCCC2)CC1)c1ccc(S(=O)(=O)Nc2ccccc2Oc2ccc(F)cc2Cl)cc1
7.00 to 7.70

Tell me its pIC50 given O=C(NCCCCC1CCNCC1)c1ccc(S(=O)(=O)Nc2ccccc2Oc2ccc(Cl)cc2Cl)cc1 [Example 170, hydrochloride] as the entry.
> 7.70

* * *

Target: human recombinant bradykinin B1 receptor (Homo sapiens, UniProt P46663)
Construct: purchased Euroscreen ES-091; host or cells: CHO cells
Sequence (P46663 1-353): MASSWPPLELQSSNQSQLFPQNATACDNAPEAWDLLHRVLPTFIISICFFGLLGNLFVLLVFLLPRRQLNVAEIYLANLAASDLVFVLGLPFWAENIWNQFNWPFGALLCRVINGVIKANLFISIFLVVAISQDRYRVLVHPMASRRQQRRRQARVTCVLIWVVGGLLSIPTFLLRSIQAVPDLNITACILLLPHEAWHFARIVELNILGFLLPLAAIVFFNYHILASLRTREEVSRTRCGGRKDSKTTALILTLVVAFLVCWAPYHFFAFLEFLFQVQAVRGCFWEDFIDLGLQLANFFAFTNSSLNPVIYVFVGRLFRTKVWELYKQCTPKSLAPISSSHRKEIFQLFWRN
Experiment: Human recombinant bradykinin B1 receptor binding
Details: radioligand [3H]-[Des-Arg10] Kallidin, CHO cell membranes; read-out: B1 binding
Where a name gives a salt, the structure may show the parent alone.
ASSAY_READOUT: Ki

Quickly give me recorded Ki for O=C(c1ccc(S(=O)(=O)Nc2ccccc2Oc2ccc(Cl)c(Cl)c2)cc1)N1CCN(CCCN2CCCCC2)CC1
100 to 500 nM

Name the recorded Ki of the compound listed here: O=C(NCCCN1CCC(N2CCCCC2)CC1)c1ccc(S(=O)(=O)Nc2ccccc2Oc2ccc(F)cc2Cl)cc1
< 20 nM

Item O=C(NCCCCC1CCNCC1)c1ccc(S(=O)(=O)Nc2ccccc2Oc2ccc(Cl)cc2Cl)cc1 [Example 170, hydrochloride] : provide Ki
< 20 nM

Answer with the recorded Ki for the compound listed here: O=C(NCc1ccc(CC2CCNCC2)cc1)c1ccc(S(=O)(=O)Nc2ccccc2Oc2ccc(Br)cc2Cl)cc1 [Example 166, hydrochloride]
20 to 100 nM
